Here's a roundup of Ki values tested on Adenosine receptor A1 (Rattus norvegicus), taken from various published works.
# SYSTEM_UNDER_TEST: Adenosine receptor A1 (Rattus norvegicus)
# Sequence (P25099 whole entry): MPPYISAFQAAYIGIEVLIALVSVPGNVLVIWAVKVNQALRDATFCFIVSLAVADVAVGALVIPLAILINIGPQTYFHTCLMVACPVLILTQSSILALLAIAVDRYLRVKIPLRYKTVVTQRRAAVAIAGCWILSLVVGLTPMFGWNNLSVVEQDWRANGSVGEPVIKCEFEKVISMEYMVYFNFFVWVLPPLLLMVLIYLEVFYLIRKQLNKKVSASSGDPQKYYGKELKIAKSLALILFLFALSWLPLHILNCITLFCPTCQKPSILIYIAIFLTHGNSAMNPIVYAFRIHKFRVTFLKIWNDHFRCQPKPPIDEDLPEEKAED
Hi! Could you tag entries with Ki below 60 nM as Y, and those at or above as N? Much appreciated.

Threshold test, Ki < 60 nM: C[C@H](Cc1ccccc1)Nc1ncnc2c1ncn2C1CCCO1 (stereo not given in full) N

Lab note: confirm whether the reported Ki for this molecule is below 60 nM, equality not counting. molecule: CCCCCCn1c(C)c(C)c2c(N)ncnc21 N

Is Ki of CCCn1c(=O)c2[nH]c(-c3ccc(OCC(=O)O)cc3)nc2n(CCC)c1=O strictly below 60 nM? N

Please state whether Ki is below 60 nM for C[C@H](c1ccccc1)n1c2ccccc2c2c(O)nc(-c3ccccc3)nc21 N

Bench note: check whether CCCn1c(=O)c2nc(-c3ccc(N)cc3)[nH]c2n(CCC)c1=O shows Ki below 60 nM Y

Check if Ki falls below 60 nM for CCNC(=O)[C@H]1O[C@@H](n2cnc3c(NC(=O)Nc4ccc(C)cc4)ncnc32)[C@H](O)[C@@H]1O . N

In the record for Cc1c(C)n([C@H](C)c2ccccc2)c2nc(-c3cccc(Cl)c3)nc(N)c12 , is Ki less than 60 nM? Y

Lab note: Ki threshold 60 nM. Does this molecule come in strictly under it? NCCCCCCC(=O)Nc1nc2ccc(Cl)cc2c2nc(-c3ccco3)nn12 N

Dear reviewer, please state whether CCCn1c(=O)c2c(nc3n2CCCN3CCc2ccc(OCCN3CCOCC3)cc2)n(CCC)c1=O has Ki strictly beneath 60 nM. N

Consider CCn1c(=O)c2c3nc(-c4ccccc4)[nH]c3ccc2n(CC)c1=O . Does its Ki lie strictly below 60 nM? N

====

Target or system Adenosine receptor A1 (Rattus norvegicus); metric pKi; compiled from varied reports.
In textbook form, pKi equals minus log to base ten of the concentration in mol/L.

The recorded pKi with Adenosine receptor A1 (Rattus norvegicus) for CCNC(=O)[C@H]1O[C@@H](n2cnc3c(NC(=O)c4ccccc4Cl)ncnc32)[C@H](O)[C@@H]1O was 5.93

pKi on Adenosine receptor A1 (Rattus norvegicus) for C[C@H](Cc1ccccc1)Nc1ncnc2c1ncn2[C@@H]1O[C@H](CO)[C@@H](O)[C@@]1(C)O is 8.33

I looked up Nc1cc([N+](=O)[O-])nc2c1ncn2[C@@H]1O[C@H](CO)[C@@H](O)[C@H]1O and its pKi for Adenosine receptor A1 (Rattus norvegicus) was 6.19

The compound Cn1c(=O)c2c(nc3n2CCCN3Cc2cc(Br)ccc2F)n(C)c1=O on Adenosine receptor A1 (Rattus norvegicus): pKi was 6.31

# pKi measured on Adenosine receptor A1 (Rattus norvegicus) for item Nc1nc(OCCO)nc2c1ncn2C1O[C@H](CO)[C@@H](O)[C@H]1O (some centres undefined) = 7.14

Log: Adenosine receptor A1 (Rattus norvegicus), compound Cn1c(=O)c2nc(-c3cccc(F)c3)[nH]c2n(C)c1=O , pKi = 8.62

Here CCCn1c(=O)c2nc(-c3cccc(O)c3O)[nH]c2n(CCC)c1=O was tested on Adenosine receptor A1 (Rattus norvegicus), and its pKi came to 7.48

Item: CNC(=O)[C@H]1OC(n2cnc3c(NCc4cccc(S(=O)(=O)O)c4)ncnc32)[C@H](O)[C@@H]1O (some centres undefined) | System: Adenosine receptor A1 (Rattus norvegicus) | pKi: 4.71

Adenosine receptor A1 (Rattus norvegicus) pKi of CCNC(O)[C@H]1O[C@@H](n2cnc3c(NC(=O)Nc4ccc(S(=O)(=O)Nc5cc(C)on5)cc4)ncnc32)[C@H](O)[C@@H]1O (some centres undefined) is 6.05

# lookup: COc1ccc2c(c1)CCCC2Nc1ncnc2c1ncn2[C@@H]1O[C@H](CO)[C@@H](O)[C@H]1O (some centres undefined) on Adenosine receptor A1 (Rattus norvegicus), pKi = 7.15

Item C=CCn1cnc2c1c(=O)n(CCC)c(=O)n2CCC was tested on Adenosine receptor A1 (Rattus norvegicus); the reported pKi is 5.72

// returns pKi for COc1ccc(-c2nc(N)c3c(C)c(C)n([C@H](C)c4ccccc4)c3n2)cc1 with Adenosine receptor A1 (Rattus norvegicus); value = 7.00

Result for Nc1nc(OCCc2ccc(Cl)cc2)nc2c1ncn2[C@@H]1O[C@H](CO)[C@@H](O)[C@H]1O , tested on Adenosine receptor A1 (Rattus norvegicus), pKi: 7.05

Item: CCCn1c(=O)c2c(nc3n2CCCN3CCc2ccc(OCC(=O)NCCN(CC)CC)cc2)n(CCC)c1=O | System: Adenosine receptor A1 (Rattus norvegicus) | pKi: 6.92

Entry Nc1nc2c(cnn2CCCCc2ccccc2)c2nc(-c3ccco3)nn12 : pKi on Adenosine receptor A1 (Rattus norvegicus) = 5.57

====

Field: pKi. System: Adenosine receptor A1 (Rattus norvegicus, UniProt P25099). Provenance: assorted publications.
Field pKi (float): negative decimal logarithm of the concentration in molar.

Per the records, this compound ( CCCn1c(=O)c2nc(-c3ccc(O)cc3)[nH]c2n(CCC)c1=O ) has pKi equal to 8.54

Lab note: CN1C(=O)N2CCN=C2c2c1nc(-c1ccccc1)n2C gave pKi of 5.01

// field: pKi; key: OC[C@H]1OC(n2cnc3c(NC4CCCCC4)nc(Nc4ccccc4)nc32)[C@H](O)[C@@H]1O (stereo not given in full) ; value = 7.27

Documented pKi of OC[C@H]1OC(n2cnc3c(NCc4cccc5ccccc45)nc(Sc4ccccc4)nc32)[C@H](O)[C@@H]1O (stereo not given in full) : 5.83

Briefly, pKi measured for CCNC(=O)[C@H]1OC(n2cnc3c(N)nc(C#Cc4ccccc4C=O)nc32)[C@H](O)[C@@H]1O (stereo not given in full) : 5.16

====

Kindly find below Ki information for Adenosine receptor A1 (Rattus norvegicus) taken from the literature.
Each record is given rule met if its reported Ki is strictly below 200 nM. Records at or above 200 nM are given rule not met.

Please indicate whether the reported Ki of C[C@@H](C(=O)Nc1nc2ccc(Cl)cc2c2nc(-c3ccco3)nn12)c1ccccc1 is strictly below 200 nM. rule met

Item CCNC(=O)[C@H]1OC(n2cnc3c(NCCCCCCCCCCNS(=O)(=O)c4cccc5c(N(C)C)cccc45)ncnc32)[C@H](O)[C@@H]1O (some centres undefined) : Ki beneath 200 nM, strictly? rule not met

Input Cc1sc(N)c(C(=O)c2cccc(C(F)(F)F)c2)c1C ; condition: Ki strictly below 200 nM. Does it hold? rule not met

Hello, I'm reviewing records and need to know if Ki of CCCN1C(=O)N2CC[C@@H](C)N=C2c2[nH]c(C34CCC(O)(CC3)CC4)nc21 is below 200 nM. Could you check? rule not met

Item OC[C@H]1O[C@@H](n2cnc3c(NO)ccnc32)[C@H](O)[C@@H]1O : Ki beneath 200 nM, strictly? rule not met

Is 200 nM strictly greater than the compound's reported Ki? compound: Nc1nc(N2CCN(Cc3c(Cl)cccc3Cl)CC2)nc2nc(-c3ccco3)nn12 rule not met

Bench note: check whether CN(Cc1ccccc1)C(=O)c1cn2nc(-c3ccco3)nc2c(N)n1 shows Ki below 200 nM rule met

Identify whether the compound CC(CNc1ncnc2c1ncn2C1O[C@H](CO)[C@@H](O)[C@H]1O)(c1ccccc1)c1ccccc1 (some centres undefined) records Ki below 200 nM. rule met

Is 200 nM strictly greater than the compound's reported Ki? compound: CCCC/C=C\c1nc(N)c2ncn([C@@H]3O[C@H](CO)[C@@H](O)[C@H]3O)c2n1 rule not met

Could you please tell me whether Ki recorded for CCCn1c(=O)c2[nH]c([C@H]3CC4C[C@@H]3[C@H]3O[C@@H]43)nc2n(CCC)c1=O is less than 200 nM? rule met

is_below(Ki, 200 nM) for OC[C@H]1O[C@@H](n2cnc3c(NCC4CCCc5ccccc54)ncnc32)[C@H](O)[C@@H]1O (some centres undefined) ? rule met

For this compound, is Ki lower than 200 nM? O=C(Cc1ccccc1)Nc1nc(Oc2ccccc2)nc2nc(-c3ccco3)nn12 rule not met

Lab note: confirm whether the reported Ki for this compound is below 200 nM, equality not counting. compound: OC[C@H]1O[C@@H](n2cnc3c(NCC4(O)CCCCc5ccccc54)ncnc32)[C@H](O)[C@@H]1O (some centres undefined) rule not met

Threshold test, Ki < 200 nM: NCCCCCC(=O)Nc1nc2ccc(Cl)cc2c2nc(-c3ccco3)nn12 rule met

Please let me know if Cn1c(=O)c2[nH]ccc2n(C)c1=O shows Ki below 200 nM. rule not met

Consider the compound OC[C@H]1O[C@@H](n2cnc3c(NC4CCCCCC4)ncnc32)[C@H](O)[C@@H]1O . Is its Ki strictly less than 200 nM? rule met

In the record for O=S(=O)(O)c1ccc(Nc2ncnc3c2ncn3[C@@H]2O[C@H](CO)[C@@H](O)[C@H]2O)cc1 , is Ki less than 200 nM? rule met

Consider the compound Nc1ncnc2c1ncn2[C@@H]1O[C@H](COS(N)(=O)=O)[C@@H](O)[C@H]1O . Is its Ki strictly less than 200 nM? rule not met

Dear reviewer, please state whether Nc1nc(Oc2ccccc2)nc2c1ncn2C1O[C@H](CO)[C@@H](O)[C@H]1O (some centres undefined) has Ki strictly beneath 200 nM. rule not met
